System: CCRIS mutagenicity, Ames/micronucleus/aberration tests
Assay: CCRIS mutagenicity studies
Conditions: Test System: AMES SALMONELLA TYPHIMURIUM; Strain/Indicator: TA100; Metabolic Activation: RAT LIVER S-9, AROCLOR 1254; Method: STANDARD PLATE
The source made the active and inactive calls. How the calls were made is not given here.
A correct response names exactly one class from 1.0 (active), 0.0 (inactive)

Before answering, review these 8 worked examples.
{"compound": "C[Si]1(C)O[Si](C)(C)O[Si](C)(C)O[Si](C)(C)O1", "class_name": 0.0}
{"compound": "CCC1C(C)=NN=C(c2ccc(OC)c(OC)c2)c2cc(OC)c(OC)cc21 (configuration not stated)", "class_name": 0.0}
{"compound": "CCCCCCOCCOCCO", "class_name": 0.0}
{"compound": "COC1=CC(=O)c2c(ncc3c2[nH]c2ccccc23)C1=O", "class_name": 1.0}
{"compound": "CC1=CCC(C(C)(C)O)CC1 (configuration not stated)", "class_name": 0.0}
{"compound": "CC1COCc2cc3c(cc21)C(C)(C)C(C)C3(C)C (configuration not stated)", "class_name": 0.0}
{"compound": "Cc1cc(N)c(C)c2c1[nH]c1ccc(O)cc12", "class_name": 0.0}
{"compound": "CC(=O)c1cc2c(cc1C)C(C)(C)C(C)C2C(C)C (configuration not stated)", "class_name": 0.0}

input: // param item: `COc1ccc2[nH]c3c(C)cc(N)c(C)c3c2c1` ; yields the recorded call
output: 0.0

input: // param item: `Cc1ccc2[nH]c3c(C)cc([N+](=O)[O-])c(C)c3c2c1` ; yields the recorded call
output: 0.0

input: // param item: `Nc1cc(S(=O)(=O)O)cc2cc(S(=O)(=O)O)c(N=Nc3ccccc3)c(O)c12` ; yields the recorded call
output: 0.0

input: // param item: `CCN(CCC#N)c1cc(NC(C)=O)c(-n2nc3c(Br)cc(N)c(Cl)c3n2)cc1OC` ; yields the recorded call
output: 1.0
